Data provenance: patent US20220017572A1

Study System: DENV2 protease (Dengue virus type 2, UniProt P14340)
Construct: The active site of the dengue protease is in the N-terminal part of NS3
Sequence (P14340 1476-1653): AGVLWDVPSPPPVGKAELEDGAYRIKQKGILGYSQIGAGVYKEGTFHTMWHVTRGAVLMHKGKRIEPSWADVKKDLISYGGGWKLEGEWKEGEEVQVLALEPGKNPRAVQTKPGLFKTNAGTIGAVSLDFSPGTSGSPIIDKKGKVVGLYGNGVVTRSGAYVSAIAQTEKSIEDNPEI
Sequence (P14340 1398-1437): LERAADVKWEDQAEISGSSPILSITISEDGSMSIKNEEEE
Measurement Description: DENV2 protease biochemical assay
Residues, ends and D or L forms follow the SMILES beside them.
# pIC50 annotations
Note on units: pIC50 is unitless, being -log10 of a concentration expressed in mol/L.

Compound	pIC50
CCCCCCCCCCCCNC(=O)[C@H](CCCCN)NC(=O)[C@H](CCCCN)NC(=O)[C@H](CCCCN)NC(=O)[C@H](C)NC(=O)CCCCCCCCCCC [C12-AKKK-C12] (HELM PEPTIDE1{[CCCCCCCCCCCC(=O)[*:2]].A.K.K.K.[CCCCCCCCCCCCN[*:1]]}$$$$V2.0)	6.52

Checklist item: pIC50 tested on DENV2 protease (Dengue virus type 2, UniProt P14340), entry CCCCCCCCCCCCNC(=O)[C@H](CCCCN)NC(=O)[C@H](CCCCN)NC(=O)[C@H](CCCCN)NC(=O)[C@H](CC(C)C)NC(=O)CCCCCCCCCCC [C12-LKKK-C12] (HELM PEPTIDE1{[CCCCCCCCCCCC(=O)[*:2]].L.K.K.K.[CCCCCCCCCCCCN[*:1]]}$$$$V2.0) , value? 6.52

---

Study System: dengue 2 protease (Dengue virus type 2, UniProt P14340)
Construct: The active site of the dengue protease is in the N-terminal part of NS3
Sequence (P14340 1476-1653): as the sequence (P14340 1476-1653) above
Measurement Description: Dengue 2 protease inhibition, hydrolysis of Z-RR-MCA
Assay type: biochemical, dengue 2 virus
Parameters: unit not given here
Condition Summary: 30 μM of inhibitor; 10 μM Z-RR-MCA, pH 9.0, 37° C.; initial activity in UAF/min
Residues, ends and D or L forms follow the SMILES beside them.
Quantity Kind: Activity with inhibitors

Recorded Activity with inhibitors, per entry:
Compound	Activity with inhibitors
CCCCCCCCCCCCCCCCNC(=O)[C@H](CCCCN)NC(=O)[C@H](CCCCN)NC(=O)CCCCCCCCCCCCCCC [C16-KK-C16, C15H31CO-KK-NH—C16H33]	48
CCCCCCCCCCCCCCCCNC(=O)[C@H](CCCCN)NC(=O)[C@H](C)NC(=O)[C@H](C)NC(=O)[C@H](C)NC(=O)[C@H](CCCCN)NC(=O)CCCCCCCCCCCCCCC [C16-KAAAK-C16] (HELM PEPTIDE1{[CCCCCCCCCCCCCCCC(=O)[*:2]].K.A.A.A.K.[CCCCCCCCCCCCCCCCN[*:1]]}$$$$V2.0)	0

Kindly review the next compound as well.
Requested read-out: Activity with inhibitors. Entry: CCCCCCCCCCCCCCCCNC(=O)[C@H](CCCNC(=N)N)NC(=O)[C@H](C)NC(=O)[C@H](C)NC(=O)[C@H](CCCNC(=N)N)NC(=O)CCCCCCCCCCCCCCC [C16RA2RC16] (HELM PEPTIDE1{[CCCCCCCCCCCCCCCC(=O)[*:2]].R.A.A.R.[CCCCCCCCCCCCCCCCN[*:1]]}$$$$V2.0) 0

---

Study System: trypsin (Bos taurus, UniProt P00760)
Construct: gene PRSS1
Sequence (P00760 24-246): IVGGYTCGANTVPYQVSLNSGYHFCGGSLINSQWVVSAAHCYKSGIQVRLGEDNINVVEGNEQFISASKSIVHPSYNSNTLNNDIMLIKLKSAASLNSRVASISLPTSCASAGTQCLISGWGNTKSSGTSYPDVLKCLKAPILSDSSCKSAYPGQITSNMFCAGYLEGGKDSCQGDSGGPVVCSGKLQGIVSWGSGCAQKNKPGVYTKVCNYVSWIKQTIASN
Measurement Description: Trypsin inhibition, fluorimetric enzyme assay
Type: biochemical
Condition Summary: 85 μM inhibitor, 36.5° C.; read-out: Residual Activity (%) Trypsin
Residues, ends and D or L forms follow the SMILES beside them.
# remaining activity at 85 µM annotations
State just the number; it will be interpreted in %.

Recorded remaining activity at 85 µM, per entry:
Molecule	remaining activity at 85 µM (%)
CCCCCCCCCCCCCCCCNC(=O)[C@H](CCCCN)NC(=O)CNC(=O)CNC(=O)CNC(=O)CNC(=O)[C@H](CCCCN)NC(=O)CCCCCCCCCCCCCCC [C16KG4KC16] (HELM PEPTIDE1{[CCCCCCCCCCCCCCCC(=O)[*:2]].K.G.G.G.G.K.[CCCCCCCCCCCCCCCCN[*:1]]}$$$$V2.0)	53
CCCCCCCCCCCCCCCCNC(=O)[C@H](CCCCN)NC(=O)[C@H](CCCCN)NC(=O)CCCCCCCCCCCCCCC [C16-KK-C16, C15H31CO-KK-NH—C16H33]	43
CCCCCCCCCCCCCCCCNC(=O)[C@H](CCCCN)NC(=O)CNC(=O)CNC(=O)CNC(=O)[C@H](CCCCN)NC(=O)CCCCCCCCCCCCCCC [C16-KGGGK-C16, C15H31CO-KGGGK-NH—C16H33] (HELM PEPTIDE1{[CCCCCCCCCCCCCCCC(=O)[*:2]].K.G.G.G.K.[CCCCCCCCCCCCCCCCN[*:1]]}$$$$V2.0)	38
CCCCCCCCCCCCCCCCNC(=O)[C@H](CCCCN)NC(=O)CNC(=O)CNC(=O)[C@H](CCCCN)NC(=O)CCCCCCCCCCCCCCC [C16-KGGK-C16, C15H31CO-KGGK-NH—C16H33] (HELM PEPTIDE1{[CCCCCCCCCCCCCCCC(=O)[*:2]].K.G.G.K.[CCCCCCCCCCCCCCCCN[*:1]]}$$$$V2.0)	24

Kindly review the next molecule as well.
Requested read-out: remaining activity at 85 µM. Entry: CCCCCCCCCCCCCCCCNC(=O)[C@H](CCCCN)NC(=O)CNC(=O)[C@H](CCCCN)NC(=O)CCCCCCCCCCCCCCC [C16-KGK-C16, C15H31CO-KGK-NH—C16H33] 24

---

System: DENV2 protease replicon
Measurement Description: DENV2 protease replicon assay
Assay type: cell-based
Condition Summary: lowest concentration with observed activity in replicon assay
Residues, ends and D or L forms follow the SMILES beside them.
# Replicon activity [μM] (1) annotations
State just the number; it will be interpreted in µM.

Recorded Replicon activity [μM] (1), per entry:
Compound	Unit Symbol	Replicon activity [μM] (1)
CCCCCCCCCCCCCCCCNC(=O)[C@@H](CO)NC(=O)[C@@H](CCCCN)NC(=O)[C@@H](C)NC(=O)[C@@H](CCCCN)NC(=O)[C@@H](CC(C)C)NC(=O)CCCCCCCCCCCCCCC [C16-D-LKAKS-C16] (HELM PEPTIDE1{[CCCCCCCCCCCCCCCC(=O)[*:2]].[dL].[dK].[dA].[dK].[dS].[CCCCCCCCCCCCCCCCN[*:1]]}$$$$V2.0)	µM	3.0
CCCCCCCCCCCCCCCCNC(=O)[C@H](CCCCN)NC(=O)[C@H](C)NC(=O)[C@H](CCCCN)NC(=O)CCCCCCCCCCCCCCC [C16-KAK-C16]	µM	0.3
CCCCCCCCCCCCNC(=O)[C@H](CCCCN)NC(=O)[C@H](CCCCN)NC(=O)[C@H](CCCCN)NC(=O)[C@H](C)NC(=O)CCCCCCCCCCC [C12-AKKK-C12] (HELM PEPTIDE1{[CCCCCCCCCCCC(=O)[*:2]].A.K.K.K.[CCCCCCCCCCCCN[*:1]]}$$$$V2.0)	µM	0.1
CCCCCCCCCCCCCCCCNC(=O)[C@H](CCCCN)NC(=O)[C@H](CCCCN)NC(=O)[C@H](CCCCN)NC(=O)[C@H](Cc1ccccc1)NC(=O)CCCCCCCCCCCCCCC [C16-FKKK-C16] (HELM PEPTIDE1{[CCCCCCCCCCCCCCCC(=O)[*:2]].F.K.K.K.[CCCCCCCCCCCCCCCCN[*:1]]}$$$$V2.0)	µM	5.0
CCCCCCCCCCCCCCCCNC(=O)[C@H](CO)NC(=O)[C@H](CCCCN)NC(=O)[C@H](C)NC(=O)[C@H](CCCCN)NC(=O)[C@H](CC(C)C)NC(=O)CCCCCCCCCCCCCCC [C16-LKAKS-C16] (HELM PEPTIDE1{[CCCCCCCCCCCCCCCC(=O)[*:2]].L.K.A.K.S.[CCCCCCCCCCCCCCCCN[*:1]]}$$$$V2.0)	µM	3.0

Checklist item: Replicon activity [μM] (1) tested on DENV2 protease replicon, entry CCCCCCCCCCCCCCCCNC(=O)[C@H](CCCCN)NC(=O)[C@H](CCC(N)=O)NC(=O)[C@H](CCCNC(=N)N)NC(=O)[C@H](C)NC(=O)CCCCCCCCCCCCCCC [C16-ARQK-C16] (HELM PEPTIDE1{[CCCCCCCCCCCCCCCC(=O)[*:2]].A.R.Q.K.[CCCCCCCCCCCCCCCCN[*:1]]}$$$$V2.0) , value? 5.0

Checklist item: Replicon activity [μM] (1) tested on DENV2 protease replicon, entry CCCCCCCCCCCCCCCCNC(=O)[C@H](CCCCN)NC(=O)[C@H](C)NC(=O)[C@H](C)NC(=O)[C@H](CCCCN)NC(=O)CCCCCCCCCCCCCCC [C16-KAAK-C16] (HELM PEPTIDE1{[CCCCCCCCCCCCCCCC(=O)[*:2]].K.A.A.K.[CCCCCCCCCCCCCCCCN[*:1]]}$$$$V2.0) , value? 3.0
